Numbers sourced from PubChem BioAssay.

Record form. Attribute: z-score. Fill in for each entry.
assay_remarks: basal MM1S mitochondrial membrane potential changes, profiling panel, cell-based, JC-1 fluorescence, 24 h, 100 nL compound (AID 1170); note: test concentration not given here
condition_details: higher = more signal
API doc: respond with a numeric literal and nothing else, no unit.

INPUT: Let me know recorded z-score for COCC(=C=CC[C@H](O)c1cccc(OCCO)c1)C[C@H](O)c1ccccn1 , thanks.
OUTPUT: -0.664

INPUT: Fill in reported z-score for this entry: O=C1O[C@@H](c2ccccc2)[C@@H](c2ccccc2)N2[C@@H](c3ccccc3OCCO)[C@]3(C(=O)Nc4ccccc43)[C@@H](C(=O)NC[C@H](O)c3ccccc3)[C@H]12
OUTPUT: -2.09

INPUT: Supply recorded z-score for CC(CO)N1C(=O)[C@@H]2C3C(=O)OCCC/C=C\[C@H]3OC23C=CCN(Cn2nnc4ccccc42)C(=O)[C@@H]13 (stereo partly drawn) here.
OUTPUT: -1.33

INPUT: Using the record for C=CCOC(=O)[C@@H]1[C@H]2C(=O)O[C@H](c3ccccc3)[C@H](c3ccccc3)N2[C@H](c2ccc(OCCOC(=O)[C@H]3C[C@H]4C(=O)N[C@@H](CCCCNC(C)=O)C(=O)N4[C@H]3c3cccc(OCCO)c3)cc2)[C@@]12C(=O)Nc1ccc(I)cc12 , state its measured z-score.
OUTPUT: -0.864

INPUT: Note down z-score recorded for C=CCN1Cc2ccccc2C[C@@]2(N=C(c3ccc(OCCCO)cc3)O[C@H]2c2ccccc2)C1=O
OUTPUT: -2.48

INPUT: Output measured z-score for this item: CN(C)C(=O)[C@]1(CCC(=O)OC(C)(C)C)N=C(c2ccc(OCCCO)cc2)O[C@@H]1c1ccccc1
OUTPUT: 0.211

INPUT: Entry CN(C)C(=O)[C@@]1(Cc2ccccc2N=[N+]=[N-])COC(c2ccc(OCCCO)cc2)=N1 needs its z-score filled in; supply it.
OUTPUT: -1.23

INPUT: Give a short answer stating reported z-score for C=CCC(OC(C)=O)[C@@H]1[C@@H](N(Cc2cc3ccccc3o2)C(=O)Cc2ccc(F)cc2)c2cc(OCCCO)ccc2N1C(=O)c1ccc2ccccc2n1 (stereo partly drawn) .
OUTPUT: 0.288

INPUT: For the molecule CN(C)CCCNC(=O)[C@@H]1c2ccccc2C(=O)N(Cc2ccc(OC(F)(F)F)cc2)[C@H]1c1ccc(CO)cc1 , give its measured z-score value.
OUTPUT: -1.13

INPUT: Give the reported value of z-score for this record: O=C(CS)NCCCCCCNC(=O)[C@@H]1C[C@@H]2C(=O)N3CCC[C@H]3C(=O)N2[C@@H]1c1cccc(OCCO)c1
OUTPUT: 0.111

INPUT: Identify z-score associated with the molecule COc1ccc(C(O)C2C=CC3C(=O)N(c4ccccc4)C(=O)C3N2Nc2ccccc2)cc1OCc1ccccc1 (stereo not drawn)
OUTPUT: -0.699

INPUT: Give a short answer stating reported z-score for COC(=O)C1(Cc2ccccc2)C=C2C(=C(C(C)C)C(=O)C2C)CN1 (stereo not drawn) .
OUTPUT: 0.0816

INPUT: Item O=C1O[C@@H](c2ccccc2)[C@@H](c2ccccc2)N2[C@@H](c3ccc(O)cc3)[C@]3(C(=O)Nc4ccc(C#CC5=CCCCC5)cc43)[C@@H](C(=O)N3CCN(c4ncccn4)CC3)[C@H]12 : provide z-score
OUTPUT: -0.877

INPUT: State its z-score: CCCCN1CC=CC23O[C@@H]4C=CCOC(=O)[C@@H]4[C@H]2C(=O)N(CCCO)[C@@H]3C1=O (stereo partly drawn)
OUTPUT: 0.797

INPUT: Report z-score, nothing else, for this molecule: CCOC(=O)C[C@H]1[C@H](OC(=O)c2ccccc2-c2ccccc2)[C@@H](NC(=O)c2ccc3ccccc3n2)c2cc(OCCCO)ccc2N1C(=O)c1ccc2ccccc2n1
OUTPUT: -0.845

INPUT: Output z-score of COC(=O)[C@@]1(Cc2ccc(OC)cc2)[C@H]2c3cc(C(=O)N(C)C)n(Cc4ccccc4)c3C[C@H]2CN1C(=O)c1ccccc1
OUTPUT: -1.85

INPUT: Specify reported z-score for the molecule shown: CC[C@@H]1[C@H]2C3C(=O)N(CC)C(=O)C3CC(=O)[C@H]2[C@H](c2ccc(C)cc2)N1S(=O)(=O)c1ccc(C)cc1 (stereo partly drawn)
OUTPUT: -1.02

INPUT: Give z-score for the following molecule: Cc1ccc(S[C@]2(C(=O)NC3CC3)CC(=O)N(Cc3ccccc3Cl)[C@@H]2c2ccc(CO)cc2I)cc1
OUTPUT: -1.45

INPUT: Annotate the molecule COc1ccc(NC(=O)O[C@H]2[C@H](OC(=O)Nc3ccc4c(c3)OCO4)[C@@H](OC(=O)Nc3ccc4c(c3)OCO4)[C@@H](OC)O[C@@H]2CO)cc1 with its measured z-score.
OUTPUT: -0.786

INPUT: Supply z-score value. Item: C=C[C@H](COC(C)=O)NS(=O)(=O)c1ccc(Br)cc1
OUTPUT: 0.651

INPUT: Provide z-score value for the following molecule: CCOc1cc(C(O)C2C=CC3C(=O)N(C)C(=O)C3N2N2CCCCC2)ccc1O (stereo not drawn)
OUTPUT: 0.0215

INPUT: Find the measured z-score of NCCCCCNC(=O)[C@@H]1C[C@@H]2C(=O)N[C@@H](CCCCN)C(=O)N2[C@@H]1c1cccc(OCCO)c1 and report it.
OUTPUT: -0.362

INPUT: Return the recorded z-score value; entry: C[C@]12C(=O)N(CCCCCCO)[C@@H]3C(=O)N(c4ccc(Cl)cc4)CC=CC31O[C@@H]1/C=C\CCCOC(=O)C12 (stereo partly drawn)
OUTPUT: 0.411

INPUT: Answer with the recorded z-score of CN(C)CCCN1C(=O)[C@@]2(c3ccc([N+](=O)[O-])cc3)CC(=O)N(CC34CC5CC(CC(C5)C3)C4)[C@@H]2c2ccc(CO)cc21 only.
OUTPUT: 0.41

INPUT: Give the value of z-score reported for the following: COC(=O)[C@@]1(Cc2ccc(OC)cc2)[C@H]2c3cc(C(=O)N4CCCC4)n(CCc4cc5ccccc5[nH]4)c3C[C@H]2CN1C(=O)c1ccccc1
OUTPUT: -1.1

INPUT: Look up z-score of O=C1OC[C@@H](c2ccccc2)N2CC(/C=C/c3ccccc3)=CC12 (stereo partly drawn) and report it.
OUTPUT: 0.00388

INPUT: For the molecule CCCNC(=O)[C@@]1(c2ccc([N+](=O)[O-])cc2)CC(=O)N(C2CCCCC2)[C@@H]1c1ccc(CO)cc1I , report z-score.
OUTPUT: -1.11

INPUT: Input C=CCN1C(=O)[C@@]2(O[C@@H](CCn3cc([C@H](O)c4ccccc4)nn3)[C@H]([Si](C)(C)c3ccc(OC)cc3)[C@H]2C)c2ccccc21 , output reported z-score.
OUTPUT: -0.364

###

assay_remarks: osmotic lysis modulators in infected erythrocytes, primary screen, PSAC antagonist project, cell-based, P. falciparum Indochina, OD700, 3 h (AID 1156)
condition_details: higher = more signal, called active from +8 up or from −8 down
Rule: T for z-score not less than 0.1, F for anything less.

INPUT: Entry COCCOC(=O)N1C(=O)[C@@]2(c3cc(C#Cc4ccc(OC)cc4)ccc31)[C@H](C(=O)N1CCCCCCC1)[C@H]1C(=O)O[C@H](c3ccccc3)[C@H](c3ccccc3)N1[C@@H]2c1ccc(O)cc1 : is its z-score no less than 0.1?
OUTPUT: F

INPUT: Say whether C=CCNC(=O)[C@@H]1[C@H]2C(=O)O[C@H](c3ccccc3)[C@H](c3ccccc3)N2[C@H](c2ccc(OCCO)cc2)[C@@]12C(=O)N(C(=O)OCCOC)c1ccc(C#CC3=CCCCC3)cc12 shows z-score of 0.1 or more.
OUTPUT: T

INPUT: Could you tell me if the measured z-score of O=C1O[C@@H](c2ccccc2)[C@@H](c2ccccc2)N2[C@@H](c3ccccc3OCCO)[C@]3(C(=O)Nc4ccc(C#CCCO)cc43)[C@@H](C(=O)N3CCN(c4ncccn4)CC3)[C@H]12 reaches 0.1 or more?
OUTPUT: F

INPUT: // inclusive: z-score at least 0.1? input: COc1ccc(NN2C(C(O)c3ccccn3)C=CC3C(=O)N(C4CCCCC4)C(=O)C32)cc1 (centres undefined)
OUTPUT: T

INPUT: Given COCCCNC(=O)[C@]1(Cc2ccccc2N=[N+]=[N-])N=C(c2ccc(OCCCO)cc2)O[C@@H]1c1ccccc1N=[N+]=[N-] , state whether its z-score is at least 0.1.
OUTPUT: T

INPUT: Reported z-score reaches at least 0.1 for CCOC(=O)C[C@H]1[C@H](OC(=O)c2ccc(-c3ccccc3)cc2)[C@@H](NC(=O)c2ccc3ccccc3c2)c2cc(OCCCO)ccc2N1C(=O)c1ccc2ccccc2n1 ?
OUTPUT: F

INPUT: Identify whether the reported z-score of the following compound is 0.1 or greater: Cc1c(NC(=O)/C(C#N)=C/C=C/c2ccc(N(C)C)cc2)c(=O)n(-c2ccccc2)n1C
OUTPUT: F

INPUT: Check this compound for z-score at or above 0.1: [N-]=[N+]=NCc1ccccc1C[C@@]1(C(N)=O)N=C(c2ccc(OCCCO)cc2)O[C@@H]1c1ccccc1CN=[N+]=[N-]
OUTPUT: T

INPUT: Please indicate if the recorded z-score for Cc1ccc(S[C@]2(C(=O)NCC(F)(F)F)CC(=O)N(Cc3ccccc3)[C@@H]2c2ccc(CO)cc2)cc1 meets or exceeds 0.1.
OUTPUT: T

INPUT: Does z-score meet or surpass 0.1 for CN(C)CCCNC(=O)[C@@H]1c2ccccc2C(=O)N(Cc2ccc(OC(F)(F)F)cc2)[C@H]1c1ccc(CO)cc1 ?
OUTPUT: T

INPUT: Textbook exercise: given the entry Cc1ccc(S[C@]2(C(=O)NCC(C)C)CC(=O)N(Cc3ccccc3Cl)[C@@H]2c2ccc(CO)cc2I)cc1 , state whether its z-score is greater than or equal to 0.1.
OUTPUT: T

INPUT: Threshold query (z-score >= 0.1) on COC(=O)[C@@]1(Cc2ccccc2)[C@H]2c3cc(C(=O)N4CCCC4)n(Cc4cc(F)cc5c4OCOC5)c3C[C@H]2CN1C(=O)c1ccccc1
OUTPUT: T

INPUT: Please indicate if the recorded z-score for CC(C)(C)N1CC=CC23O[C@@H]4C=CCOC(=O)[C@@H]4[C@H]2C(=O)N(CCCO)[C@@H]3C1=O (some centres undefined) meets or exceeds 0.1.
OUTPUT: T

INPUT: Reported z-score reaches at least 0.1 for CCCCN1CC=CC23O[C@@H]4/C=C\CCC(C)OC(=O)C4[C@H]2C(=O)N(CCCCCCO)[C@@H]3C1=O (some centres undefined) ?
OUTPUT: T

INPUT: Exam item: decide whether the reported z-score for Cc1ccc(F)cc1S(=O)(=O)N[C@@H]1CCN(Cc2ccc(Oc3ccccc3)cc2)C1 is at least 0.1.
OUTPUT: T

INPUT: Record Cc1ccc(S[C@]2(C(=O)O)CC(=O)N(Cc3ccccc3Cl)[C@@H]2c2ccc(CO)cc2)cc1 ; criterion: z-score no lower than 0.1. Met?
OUTPUT: T

INPUT: Answer whether z-score of CN(C)C(=O)[C@]1(CCC(=O)OC(C)(C)C)N=C(c2ccc(OCCCO)cc2)O[C@@H]1c1ccccc1 is greater than or equal to 0.1.
OUTPUT: F

INPUT: Would you say COc1cc(OC)c(C(O)C2C=CC3C(=O)N(c4ccccc4)C(=O)C3N2Nc2ccc(C#N)cc2)cc1Br (centres undefined) shows z-score at minimum 0.1?
OUTPUT: T

INPUT: Confirm if z-score reported for the compound CC(C)(C)OC(=O)CC[C@]1(C(=O)O)N=C(c2ccc(OCCCO)cc2)O[C@H]1c1ccccc1 is 0.1 or above.
OUTPUT: F

INPUT: Decide: is the reported value of z-score for CCCc1cccc(=O)o1 equal to or greater than 0.1?
OUTPUT: F

INPUT: Reported z-score at or above 0.1? CCOC(=O)C[C@H]1[C@H](OC(=O)c2ccc(C(=O)c3ccccc3)cc2)[C@@H](NC(=O)c2ccc3ccccc3c2)c2cc(OCCCO)ccc2N1C(=O)c1ccccc1
OUTPUT: F

INPUT: Can CC(C)(C)OC(=O)CC[C@]1(C(=O)NCCN2CCOCC2)N=C(c2ccc(OCCCO)cc2)O[C@H]1c1ccccc1 be said to have z-score at or above 0.1?
OUTPUT: T

INPUT: Could you verify whether the entry COc1ccc([Si](C)(C)[C@H]2[C@H](CCn3cc([C@H](O)c4ccccc4)nn3)O[C@@]3(C(=O)N(Cc4ccc(N5CCC5=O)cc4)c4ccccc43)[C@@H]2C)cc1 shows z-score of no less than 0.1?
OUTPUT: T

INPUT: Assess whether reported z-score for CO[C@H]1O[C@H](CO)[C@@H](OC(=O)Nc2ccc(C(F)(F)F)cc2)[C@H](OC(=O)Nc2ccc3c(c2)OCO3)[C@H]1OC(=O)Nc1ccc2c(c1)OCO2 sits at 0.1 or higher.
OUTPUT: T

INPUT: Is z-score at least 0.1? Consider [N-]=[N+]=NCc1ccccc1[C@H]1OC(c2ccc(OCCCO)cc2)=N[C@@]1(CCS(=O)(=O)c1ccccc1)C(N)=O
OUTPUT: T

INPUT: State whether the measured z-score reaches 0.1, counting equality as reaching it, for COCCCNC(=O)[C@@H]1c2ccccc2C(=O)N(Cc2ccccc2C(F)(F)F)[C@H]1c1ccc(CO)cc1
OUTPUT: F

INPUT: Determine whether this compound has z-score no lower than 0.1: COc1cc2c(cc1O)C(C)N(Cc1cc3c(cc1Br)OCO3)CC2 (centres undefined)
OUTPUT: T

INPUT: Given the entry C[C@H]1C2=C3C(CC[C@H]4C(OCc5ccc(F)cc5C(F)(F)F)OC[C@](C)([C@@H]34)N(C(=O)OC(C)(C)C)C2)C2COC(=O)OCC21 (some centres undefined) , answer whether its z-score meets or surpasses 0.1.
OUTPUT: T

INPUT: Kindly determine if z-score recorded for CCC[C@@H]1C[C@@]1(CCC)[C@@H](NP(=O)(c1ccccc1)c1ccccc1)c1ccc(Cl)cc1 is above or exactly 0.1.
OUTPUT: T
